# tested-target: ACC-1 (Hafnia alvei)
# Sequence (Q9XB24 entry or part of it): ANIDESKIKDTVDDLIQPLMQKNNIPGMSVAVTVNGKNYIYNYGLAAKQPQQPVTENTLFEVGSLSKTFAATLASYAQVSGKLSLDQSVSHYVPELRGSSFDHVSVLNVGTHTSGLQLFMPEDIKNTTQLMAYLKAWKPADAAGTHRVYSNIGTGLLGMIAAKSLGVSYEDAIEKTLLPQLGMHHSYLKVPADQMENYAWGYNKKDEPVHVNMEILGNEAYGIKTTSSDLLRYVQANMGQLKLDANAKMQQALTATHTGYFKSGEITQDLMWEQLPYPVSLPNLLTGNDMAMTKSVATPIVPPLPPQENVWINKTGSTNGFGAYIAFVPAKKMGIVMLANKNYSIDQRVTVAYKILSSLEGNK
# measurement-notes: IC50 of β-lactamase inhibitors, crude extract, ACC-1
# Assay type: biochemical
# measurement-parameters: ACC-1; crude extract of E. coli TOP10 recombinant strain; mean of triplicate; read-out: IC50
Below, each entry is listed alongside its reported pIC50.
Answer as the number alone; pIC50 is minus log10 of concentration in mol/L.

INSERT INTO results (substance_smiles, measurement) VALUES
  ('NCCN[C@H]1CC[C@H](CC(=O)N[C@H]2Cc3cccc(C(=O)O)c3OB2O)CC1', 6.74);

Switching to the query record.
Task: What value of pIC50 has been recorded for this entry: Cn1cc[n+](C[C@@]2(C)[C@H](C(=O)[O-])N3C(=O)C[C@H]3S2(=O)=O)n1
Result: 4.41
